# System: NB69;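 note: growth inhibition of NB69 cells, determined by a cell viability assay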
# Run Description: cells
# Format: functional, cell-based, Homo sapiens
# Run Parameters: Homo sapiens, NB69
# Description: SANGER: Inhibition of human NB69 cell growth in a cell viability assay.
pIC50: −log10 of the molar value.

# Query Smiles, System Tested, pIC50
records = [
    ("CC1=C(/C=C/C(C)=C/C=C/C(C)=C/C(=O)O)C(C)(C)CCC1", "NB69", "< 5.00"),
    ("COC(=O)[C@H](CCSC)NC(=O)c1ccc(NC[C@@H](N)CS)cc1-c1ccccc1", "NB69", "< 5.99"),
    ("CCCCCCCCCCCC1=C(O)C(=O)C=C(O)C1=O", "NB69", "< 4.49"),
    ("CN(C)CCOc1ccc(-c2nc(-c3ccncc3)c(-c3ccc4c(c3)CC/C4=N\\O)[nH]2)cc1", "NB69", "< 5.30"),
]

----------
Quick reference: pIC50 of the listed items.
# Test system: SK-NEP-1;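 note: growth inhibition of human SK-NEP-1 cells, read out by a cell viability assay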
# Run Description: cells
# Type: functional, cell-based, Homo sapiens
# Run Parameters: Homo sapiens, SK-NEP-1
# Description: SANGER: Inhibition of human SK-NEP-1 cell growth in a cell viability assay.
pIC50: −log10 of the molar value.
Measured Parameter: pIC50

# Query Smiles, Measured Parameter, Experimental Value
data = [
    ("C[C@@H](Oc1cc(-c2cnn(C3CCNCC3)c2)cnc1N)c1c(Cl)ccc(F)c1Cl", "pIC50", "< 5.70"),
    ("Cc1ccc(NC(=O)c2ccc(CN3CCN(C)CC3)cc2)cc1Nc1nccc(-c2cccnc2)n1", "pIC50", "< 5.70"),
    ("COc1ccc(N(C(=O)Oc2c(C)cccc2C)c2ccnc(Nc3ccc(N4CCN(C)CC4)cc3)n2)c(OC)c1", "pIC50", "< 5.29"),
]

----------
# Tested on: Becker;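 note: growth inhibition of Becker cells, read out with a cell viability assay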
# Run Description: cells
# Format: functional, cell-based, Homo sapiens
# Run Parameters: Homo sapiens, Becker
# Description: SANGER: Inhibition of human Becker cell growth in a cell viability assay.
pIC50: −log10 of the molar value.

# Compound, pIC50
rows = [
    ("CS(=O)(=O)N1CCN(Cc2cc3nc(-c4cccc5[nH]ncc45)nc(N4CCOCC4)c3s2)CC1 [PICTILISIB]", 5.50),
    ("NC(=O)c1cccc(-c2cc(Nc3ccc(OC(F)(F)F)cc3)ncn2)c1", "< 5.89"),
    ("COC(=O)[C@H](CCSC)NC(=O)c1ccc(NC[C@@H](N)CS)cc1-c1ccccc1", "< 5.99"),
    ("CC1=C(/C=C/C(C)=C/C=C/C(C)=C/C(=O)O)C(C)(C)CCC1 [TRETINOIN]", "< 5.00"),
    ("COc1ccc(N(C(=O)Oc2c(C)cccc2C)c2ccnc(Nc3ccc(N4CCN(C)CC4)cc3)n2)c(OC)c1", 7.20),
    ("C[C@@H](Oc1cc(-c2cnn(C3CCNCC3)c2)cnc1N)c1c(Cl)ccc(F)c1Cl [CRIZOTINIB]", "< 5.70"),
    ("C=CC(=O)N1CCCC(Nc2nc(Nc3ccc(N(C)C(=O)CC)cc3)nc3[nH]cnc23)C1 (configuration not stated)", "< 4.99"),
]

----------
# Test system: KARPAS-299
# Run Description: cells
# Format: functional, cell-based, Homo sapiens
# Run Parameters: Homo sapiens, KARPAS-299
# Description: SANGER: Inhibition of human KARPAS-299 cell growth in a cell viability assay.
As shown below, each of these compounds has a reported IC50 value.
Measured Parameter: IC50

# Query Smiles, System Tested, Experimental Value
rows = [
    ("Cc1cc(N2CCOCC2)cc2[nH]c(-c3c(NC[C@@H](O)c4cccc(Cl)c4)cc[nH]c3=O)nc12", "KARPAS-299", "3850 nM"),
    ("CC1=C(/C=C/C(C)=C/C=C/C(C)=C/C(=O)O)C(C)(C)CCC1", "KARPAS-299", "> 10000 nM"),
    ("COC(=O)[C@H](CCSC)NC(=O)c1ccc(NC[C@@H](N)CS)cc1-c1ccccc1", "KARPAS-299", "> 1020 nM"),
    ("O=C1NC(=O)c2c1c(-c1ccccc1Cl)cc1[nH]c3ccc(O)cc3c21", "KARPAS-299", "> 2000 nM"),
    ("NC(=O)c1cccc(-c2cc(Nc3ccc(OC(F)(F)F)cc3)ncn2)c1", "KARPAS-299", "> 1280 nM"),
]

----------
# Tested on: SU-DHL-1
# Run Description: SANGER: Inhibition of human SU-DHL-1 cell growth in a cell viability assay.
# Type: functional, cell-based
# Run Parameters: Homo sapiens, SU-DHL-1
IC50 values, listed per item

# Query Smiles, IC50
data = [
    ("CCCCCCCCCCCC1=C(O)C(=O)C=C(O)C1=O", "> 32 µM"),
    ("OC[C@H](Cc1ccccc1)Nc1nc(Oc2ccc3c(c2)CCC3)nc2c1ncn2Cc1ccc(-c2ccccc2)cc1", "> 10.2 µM"),
    ("O=S(=O)(O)c1ccc2cc(/N=N/c3cc(S(=O)(=O)O)c4cccnc4c3O)ccc2c1", "> 16 µM"),
]

----------
# System: RL95-2;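 note: RL95-2 growth inhibition determined through a cell viability readout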
# Run Description: cells
# Assay type: functional, cell-based, Homo sapiens
# Run Parameters: Homo sapiens, RL95-2
# Description: SANGER: Inhibition of human RL95-2 cell growth in a cell viability assay.
pIC50: −log10 of the molar value.
Each entry below carries its recorded pIC50.
Measured Parameter: pIC50

# Compound, Experimental Value
records = [
    ("C=CC(=O)N1CCCC(Nc2nc(Nc3ccc(N(C)C(=O)CC)cc3)nc3[nH]cnc23)C1 (stereo not drawn)", "< 4.99"),
    ("Cc1ccc(C(=O)Nc2ccc(CN3CCN(C)CC3)c(C(F)(F)F)c2)cc1C#Cc1cnc2cccnn12", "< 6.29"),
    ("NC(=O)c1cccc(-c2cc(Nc3ccc(OC(F)(F)F)cc3)ncn2)c1", "< 5.89"),
]

----------
# Test system: EFM-19;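 note: growth inhibition of human EFM-19 cells, measured in a cell viability assay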
# Run Description: cells
# Format: functional, cell-based
# Run Parameters: Homo sapiens
# Description: SANGER: Inhibition of human EFM-19 cell growth in a cell viability assay.
pIC50: −log10 of the molar value.

# Query Smiles, System Tested, pIC50
rows = [
    ("O=C1NC(=O)c2c1c(-c1ccccc1Cl)cc1[nH]c3ccc(O)cc3c21", "EFM-19", "< 5.70"),
    ("OC[C@H](Cc1ccccc1)Nc1nc(Oc2ccc3c(c2)CCC3)nc2c1ncn2Cc1ccc(-c2ccccc2)cc1", "EFM-19", "< 4.99"),
    ("Cc1ccc(-n2nc(C(C)(C)C)cc2NC(=O)Nc2ccc(OCCN3CCOCC3)c3ccccc23)cc1", "EFM-19", "< 5.00"),
]

----------
# Test system: MSTO-211H
# Run Description: cells
# Assay type: functional, cell-based, Homo sapiens
# Run Parameters: Homo sapiens, MSTO-211H
# Description: SANGER: Inhibition of human MSTO-211H cell growth in a cell viability assay.
Measured Parameter: IC50

# Query Smiles, System Tested, Measured Parameter, Experimental Value
records = [
    ("COc1cc(N2CCC(N3CCN(C)CC3)CC2)ccc1Nc1ncc(Cl)c(Nc2ccccc2S(=O)(=O)C(C)C)n1", "MSTO-211H", "IC50", "> 2 µM"),
    ("Cc1ccc(C(=O)Nc2ccc(CN3CCN(C)CC3)c(C(F)(F)F)c2)cc1C#Cc1cnc2cccnn12", "MSTO-211H", "IC50", "> 0.512 µM"),
    ("CN(C)CCOc1ccc(-c2nc(-c3ccncc3)c(-c3ccc4c(c3)CC/C4=N\\O)[nH]2)cc1", "MSTO-211H", "IC50", "> 5 µM"),
    ("O=C1NC(=O)c2c1c(-c1ccccc1Cl)cc1[nH]c3ccc(O)cc3c21", "MSTO-211H", "IC50", "> 2 µM"),
    ("Cc1cc(N2CCOCC2)cc2[nH]c(-c3c(NC[C@@H](O)c4cccc(Cl)c4)cc[nH]c3=O)nc12", "MSTO-211H", "IC50", "> 5.12 µM"),
]

----------
Quick reference: pIC50 of the listed items.
# System: T-24
# Run Description: cells
# Assay type: functional, cell-based
# Run Parameters: Homo sapiens
# Description: SANGER: Inhibition of human T-24 cell growth in a cell viability assay.
pIC50: −log10 of the molar value.

# Molecule, pIC50
measured = [
    ("COc1ccc(-c2cc3nccn3c(Nc3ncccc3C(N)=O)n2)cc1OC", "< 5.10"),
    ("COC(=O)[C@H](CCSC)NC(=O)c1ccc(NC[C@@H](N)CS)cc1-c1ccccc1", "< 5.99"),
    ("NC(=O)c1ccc(N(C(N)=O)c2c(F)cccc2F)nc1-c1ccc(F)cc1F [VX-702]", "< 5.70"),
]

----------
# Test system: NCI-H1437
# Run Description: cells
# Type: functional, cell-based
# Run Parameters: Homo sapiens
# Description: SANGER: Inhibition of human NCI-H1437 cell growth in a cell viability assay.
pIC50: −log10 of the molar value.
// reported pIC50 per item
Measured Parameter: pIC50

# Compound, Experimental Value
measured = [
    ("CO[C@@H]1[C@H](N(C)C(=O)c2ccccc2)C[C@H]2O[C@]1(C)n1c3ccccc3c3c4c(c5c6ccccc6n2c5c31)C(=O)NC4 [MIDOSTAURIN]", "< 6.29"),
    ("NC(=O)c1ccc(N(C(N)=O)c2c(F)cccc2F)nc1-c1ccc(F)cc1F [VX-702]", "< 5.70"),
    ("Cc1ccc(-n2nc(C(C)(C)C)cc2NC(=O)Nc2ccc(OCCN3CCOCC3)c3ccccc23)cc1 [DORAMAPIMOD]", "< 5.00"),
    ("COC(=O)[C@H](CCSC)NC(=O)c1ccc(NC[C@@H](N)CS)cc1-c1ccccc1", "< 5.99"),
    ("Cc1ccc(C(=O)Nc2ccc(CN3CCN(C)CC3)c(C(F)(F)F)c2)cc1C#Cc1cnc2cccnn12 [PONATINIB]", "< 6.29"),
]
